test: Zeta-potential measurement; assay type: physicochemical; conditions: zeta potential of peptide; Fig S15 source data
The label depends only on Zeta-pot. / mV: Y if it is at least 8 mV, N if it is smaller.

{"Substance": "CQFQFQF [QBL4]", "Class assignment": "N"}
{"Substance": "NMWQKAKAQA [JG10]", "Class assignment": "N"}
{"Substance": "TKTLTKTL [CN25]", "Class assignment": "N"}
{"Substance": "KFKFQFW [TM71]", "Class assignment": "N"}
{"Substance": "CKFKFQFW [TM72]", "Class assignment": "Y"}
{"Substance": "CKIKIQINMWQ [MG1]", "Class assignment": "Y"}
{"Substance": "ILKNLSRSRKIKIQIC [TM116]", "Class assignment": "Y"}
{"Substance": "HGEHGEHGE [CN7]", "Class assignment": "N"}
{"Substance": "CSISIQI [TM141]", "Class assignment": "N"}
{"Substance": "HIHIQIC [CN12]", "Class assignment": "N"}
{"Substance": "KIKQIIN [JGA3]", "Class assignment": "N"}
{"Substance": "NMWQKIKQII [JG8]", "Class assignment": "N"}
{"Substance": "CEIEIQINMWQ [TM143]", "Class assignment": "N"}
{"Substance": "CKFKQFFNMWQ [CK13]", "Class assignment": "Y"}
{"Substance": "HLHLPLL [CN14]", "Class assignment": "N"}
{"Substance": "KFKFQFNMW [BL5 / KB13]", "Class assignment": "Y"}
{"Substance": "CKAKAQANM [BL9]", "Class assignment": "N"}
{"Substance": "KLKLKLQL [TG16]", "Class assignment": "Y"}
{"Substance": "KIKIQINMWQ [JG1]", "Class assignment": "Y"}
{"Substance": "KIKIKIQINMWQ [VH9]", "Class assignment": "Y"}
{"Substance": "CKIKQII [MG4a]", "Class assignment": "N"}
{"Substance": "RGDCKIKIQINM [TM45]", "Class assignment": "Y"}
{"Substance": "KIEIQINM [NM6]", "Class assignment": "N"}
{"Substance": "CKFKQFF [CK15]", "Class assignment": "Y"}
{"Substance": "KIKIQIAMWQ [JR4]", "Class assignment": "Y"}
{"Substance": "KNERIKNERI [CN3]", "Class assignment": "N"}
{"Substance": "CKIKIQIII [AR0 / F19]", "Class assignment": "Y"}
{"Substance": "FDPFDPFDP [CN24]", "Class assignment": "N"}
{"Substance": "KIKQIINMWQ [JG2]", "Class assignment": "Y"}
{"Substance": "EIEIEIEI [JR12]", "Class assignment": "N"}
{"Substance": "KIKQIINM [JGA2]", "Class assignment": "Y"}
{"Substance": "MDQMDQMDQMDQMDQ [CN23]", "Class assignment": "N"}

Reference source: paper PMC10447463
